Source listed as patent US20060269997A1.

Collected pIC50 values appear next to each entry.
# MEASURED_TARGET: T1, KDR (1-3) monomer (UniProt P35968 20-327, limits assumed, biotin-labeled in the ELISA of Example 8)
# T1 construct: domain: domains 1 to 3; Genentech reagent; also called domains 1 to 3 of KDR
# T1 sequence (P35968 20-327 limits assumed): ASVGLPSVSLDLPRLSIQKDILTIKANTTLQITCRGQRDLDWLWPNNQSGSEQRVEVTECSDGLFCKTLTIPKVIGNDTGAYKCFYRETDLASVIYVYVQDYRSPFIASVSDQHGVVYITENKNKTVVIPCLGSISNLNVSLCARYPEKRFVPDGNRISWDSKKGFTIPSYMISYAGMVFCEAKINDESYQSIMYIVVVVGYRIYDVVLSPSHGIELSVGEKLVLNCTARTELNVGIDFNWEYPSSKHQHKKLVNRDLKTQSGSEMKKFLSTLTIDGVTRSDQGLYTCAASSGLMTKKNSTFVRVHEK
# EXPERIMENTAL_DETAILS: competition ELISA vs biotinylated VEGF (8-109), soluble KDR (1-3) captured by MAKD5
pIC50: −log10 of the molar value.

- BINDER: "LK-VRB-16s (ligand, human, UniProt P15692-4 27-135, looked up) APMAEGGGQNHHEVVKFMDVYRRSSCHPIETLVDIFQEYPDEIEYIFKPSCVPLMRCGGCCNSEMRECVPTEESNITMQIMRIKPHQGQHIGEMSFLQHNKCECRPKKD"
  pIC50: 9.22
- BINDER: "LK-VRB-19s (ligand, human, UniProt P15692-4 27-135, looked up, one of the two is probably misprinted) APMAEGGGQNHHEVVKFEDVYRRSSCHPIETLVDIFQEYPDEIEYIFKPSCVPLMRCGGCCNSEMRECVPTEESNITMQIMRIKPHQGQHIGEMSFLQHNKCECRPKKD"
  pIC50: 8.15
- BINDER: "LK-VRB-9s (ligand, human, UniProt P15692-4 27-135, looked up) APMAEGGGQNHHEVVKFMDVYRRSYCHPIETLVDIFQEYPDEIEYIFKPSCVPLMRCGGCCNSEMRECVPTEESNITMQIMRIKPHQGQHIGEMSFLQHNKCECRPKKD"
  pIC50: 9.30
- BINDER: "LK-VRB-25s (ligand, human, UniProt P15692-4 27-135, looked up) APMAEGGGQNHHEVVKFEDVLRRSSCHPIETLVDIFQEYPDEIEYIFKPSCVPLMRCGGCCNSEGRECVPTEESNITMQIMRIKPHQGQHIGEMSFLQHNKCECRPKKD"
  pIC50: 8.40
